Biological target: recombinant Human Phosphodiesterase B2 (PDE4B2) (Homo sapiens, UniProt Q07343)
Sequence (Q07343 1-564 isoform Q07343-2): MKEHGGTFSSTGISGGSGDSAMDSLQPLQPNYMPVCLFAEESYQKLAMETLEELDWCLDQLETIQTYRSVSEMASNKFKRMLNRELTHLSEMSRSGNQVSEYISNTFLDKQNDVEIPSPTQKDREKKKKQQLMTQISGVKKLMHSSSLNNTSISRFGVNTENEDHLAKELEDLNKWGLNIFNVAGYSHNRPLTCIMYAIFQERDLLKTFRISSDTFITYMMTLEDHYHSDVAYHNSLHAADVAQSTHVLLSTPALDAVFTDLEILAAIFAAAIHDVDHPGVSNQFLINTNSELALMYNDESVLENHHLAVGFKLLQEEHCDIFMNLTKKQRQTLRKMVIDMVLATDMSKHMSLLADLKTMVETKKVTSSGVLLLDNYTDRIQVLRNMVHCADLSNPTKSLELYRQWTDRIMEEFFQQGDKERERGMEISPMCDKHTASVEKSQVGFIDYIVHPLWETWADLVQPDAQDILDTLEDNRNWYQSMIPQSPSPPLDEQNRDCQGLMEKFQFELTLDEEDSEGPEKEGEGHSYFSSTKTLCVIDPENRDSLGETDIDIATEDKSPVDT
Assay: Human Phosphodiesterase B2 Radiometric Assay (yttrium silicate SPA beads, [3H]cyclic AMP)
Type: biochemical
Conditions: recombinant human PDE4B2, radiometric SPA assay, 8 nM [3H]cyclic AMP; read-out: PDE4B2 pIC50 (converted)
Structures can show the parent of a compound that is named as a salt.
# note: exactly 300 pM is not below, so it is N; use Y for IC50 strictly under it

Before answering, review these 5 worked examples.
N[C@H]1CC[C@@H](n2c(=O)c3cc(F)cnc3n(-c3cccc(-c4ccccc4CN4CCOCC4)c3)c2=O)CC1 : N
Cc1cc(C(=O)N[C@H]2CC[C@@H](n3c(=O)c4cc(F)cnc4n(-c4cccc(-c5ccc(CN6CCC(N7CCCCC7)CC6)cc5)c4)c3=O)CC2)nn1C : Y
O=c1c2cc(F)cnc2n(-c2cccc(-c3ccc(O)cc3CN3CCOCC3)c2)c(=O)n1[C@H]1CC[C@@H](NCc2cccn3ccnc23)CC1 : Y
NCc1cccc(-c2cccc(-n3c(=O)n([C@H]4CC[C@@H](NC(=O)c5cn6cc(F)ccc6n5)CC4)c(=O)c4cc(F)cnc43)c2)c1 [Example 31, Hydrochloride] : N
Cc1nc(C(=O)N[C@H]2CC[C@@H](n3c(=O)c4cc(F)cnc4n(-c4cccc(-c5ccc(CN6CCCN(C)CC6)cc5)c4)c3=O)CC2)cs1 : Y

Alright, here's another molecule for you.
Ask: IC50 strictly < 300 pM for this molecule? "O=c1c2cc(F)cnc2n(-c2cccc(-c3ccc(CN4CCOCC4)cc3)c2)c(=O)n1[C@H]1CC[C@@H](NCc2cn3cc(F)ccc3n2)CC1"
Reply: N

Numbers sourced from patent US20100204203A1.
